Hello, the source for this data is the supplement of paper PMC12632987, in case you need it.

# target: T1, TRAF2, Q12933
# T1 chain: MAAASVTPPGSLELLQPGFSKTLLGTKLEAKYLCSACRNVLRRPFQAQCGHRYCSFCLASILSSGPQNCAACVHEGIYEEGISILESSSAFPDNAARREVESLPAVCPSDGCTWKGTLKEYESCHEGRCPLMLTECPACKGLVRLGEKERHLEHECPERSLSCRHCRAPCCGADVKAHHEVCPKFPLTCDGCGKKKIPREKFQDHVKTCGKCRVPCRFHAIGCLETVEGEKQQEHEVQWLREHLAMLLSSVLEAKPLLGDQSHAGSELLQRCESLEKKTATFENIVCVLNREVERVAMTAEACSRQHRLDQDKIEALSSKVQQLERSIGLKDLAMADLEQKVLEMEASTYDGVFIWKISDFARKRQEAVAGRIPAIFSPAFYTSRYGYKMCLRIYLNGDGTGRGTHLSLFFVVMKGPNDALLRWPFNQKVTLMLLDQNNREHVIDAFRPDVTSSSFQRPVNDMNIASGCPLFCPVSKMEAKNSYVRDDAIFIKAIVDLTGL
# assay-name: median log2 fold change of GCK-ALFA target abundance (FLAG IP / Myc IP barcode read proportion) (log2 ratio); each designed protein is fused to an ALFA-tag nanobody in HEK293 cells to bring the named protein to FLAG-tagged glucokinase (GCK); Myc marks an untargeted standard; higher = target protein stabilised (more abundant)
# recorded-conditions: target protein: 3xFLAG-MCP-GCK-ALFA reporter; HEK293 landing pad (RPLP)
The full ranking holds about 1,800 sequences; the median of “median log2 fold change of GCK-ALFA target abundance (FLAG IP / Myc IP barcode read proportion)” is about 0.14, and the lowest 2% start at about -0.84. Shown is part of a subset that was picked to be rich in the lowest values.
Categorize each record by its median log2 fold change using low bracket: < -0.2; middle bracket: ≥ -0.2 and < 0.2; high bracket: ≥ 0.2

binder: traf2_out_13_95_1077 (protein) SKETNEKIMEIADEMLDKVNEVLEELAEKVKDDPEMKAKVEEALHLATHRGINEAIHLLKKLAEENEEYKELLEEAIKKLEEIKEKAGKEVAKLLKEEEE
group: middle bracket

Query string: For this binder, which bin applies? traf2_out_11_104_639 (protein) LTREQAREFNDFAMAKEDEARAVAAELAAALEAAGETAAAARVRAALAHPGAGISTFRNLLEDLLPTLSPAAAAQARAAIARLAALQREVSAKLNELEAK
Result string: high bracket

Query string: For this binder, which bin applies? traf2_out_15_48_1341 (protein) SVEELRAVASEIADEIDAAKDAVAAELEALRPSAAPEQRAPLAEAIDAARHGRGQNTVLALLDRLEPLLAPEQAARVAALRDRLRAVVRAASARMAEVLK
Result string: middle bracket

Query string: For this binder, which bin applies? traf2_out_14_17_1291 (protein) DIIEKLEEILKTAKELAKKYPELKLELTQLERKAESALVLAEMYEEDPSYKPELIQGLKNLIKLAKEVAEKLKPISAEAVKKLEEMEETAKEILKEVEAE
Result string: middle bracket

Query string: For this binder, which bin applies? traf2_out_1_158_908 (protein) STDVSTLHAVATSIAEVYAEEAKERGLEKAAELLKKLKKEIEKLYEANKDASLEEMAAKVLELIKKFEEESKSFDPETREFVEIAFRQIRSGILQVVKLA
Result string: middle bracket

Query string: For this binder, which bin applies? traf2_out_13_95_1070 (protein) TRELARRINELADRAEERALALLAAAQAELADDPEAVAVLDEAARLAETRGIRAAIALLREAQAAHPEHREAFDALIAELEEIRRELGREVAKLIKEAEE
Result string: low bracket

Query string: For this binder, which bin applies? traf2_out_17_162_1608 (protein) MELEEKLKKLKELLEELEKKLKRLEEKLKNIEKLSKEELSDLLVEASEARRKALEALEEIKKLKEKLDKEEYEKLSKRFEEIAEKFQRIANKFYKELEKK
Result string: middle bracket

Query string: For this binder, which bin applies? traf2_out_15_48_1358 (protein) STEALRETARKVADLIDATLDEVAKELKALLPKAKPEVKPILEEAIRVASTHRSINDTIALLEEAIKKSDPELAKELQELRDRLLATQKEASKLINETEK
Result string: high bracket

Query string: For this binder, which bin applies? traf2_out_20_3_2164 (protein) SELEKKLEEELERALKLLKKAAELSDEETKKKLKELIERLKESRSLSPSDRLVVVSEVRREVLLLAQKAKAEGKEELAKLLEEAAEELNRAMQLLYEIIE
Result string: middle bracket

Query string: For this binder, which bin applies? traf2_out_6_156_2413 (protein) MVEKIFEETLKKVEELIKKLSKASEEKKISYISKIAGTVYKALQQLREAGASLEEIKEFSERLKKEIEKLLKEAGLDEKTRNLVLSSVNAVFTVAIEEAK
Result string: high bracket

Query string: For this binder, which bin applies? traf2_out_20_38_2032 (protein) SEEEEEERRLEEAIEVANEAYDRYTARFEEWQAAGKTVEEIAEETKKEVKELLEKAGLEEEAKILIEDIDLALSSPDAVRLLVRILARAEALVWQKEKEK
Result string: low bracket

Query string: For this binder, which bin applies? traf2_out_20_38_2038 (protein) SEEEEEEERLERLVEVANAALDRYEARIAALQAEGKSVAEIAEWAKEEIRRILGEAGLEEEAEELIAQVRTVENRPDALRLIARILARAEALAYQKELQK
Result string: low bracket

Query string: For this binder, which bin applies? traf2_out_1_158_906 (protein) STAVNTLYAVATSIADVYAELAKERGLEKAAALLEKLKEDIKELYEKNKNASLEEFAKKVLELIEEKEKESESLPEEDKALVDIAFRQIKSGVEQVVKLA
Result string: middle bracket

Query string: For this binder, which bin applies? traf2_out_14_149_1231 (protein) SEEAKLLAAAAELTEKIAKTLEEVLKLLKEGKLEEAKKLLKESIEELEKESKKKGVTPSQLFQLEDLLELLEKDPEAAKKFAEEALARAKENADTLKEMA
Result string: high bracket

Query string: For this binder, which bin applies? traf2_out_20_3_2204 (protein) SELEEELEKRLDAAEKLLKEAQKLADPETAKTLDALIARLKASRELSYDDRLVTLSAIRAEVLALAQAAKAAGNAELAAVLEAAADELQKAMNLVYKIIE
Result string: low bracket

Query string: For this binder, which bin applies? traf2_out_20_38_2028 (protein) SEEEEEKKRLEELIKVANEAYDKAEKKIAKLKAEGKTIEEIAEEAKEEVERILSEVGLEEEREELIEDIDRVLDSPDAERLIARILARAVALAYQKELQK
Result string: low bracket
